Molecular target: T1, CD123 (Homo sapiens (Human), UniProt P26951 19-305, limits assumed)
T1 construct: The CD123 construct used in the ELISA is not described; also called CD123-Signal
T1 sequence: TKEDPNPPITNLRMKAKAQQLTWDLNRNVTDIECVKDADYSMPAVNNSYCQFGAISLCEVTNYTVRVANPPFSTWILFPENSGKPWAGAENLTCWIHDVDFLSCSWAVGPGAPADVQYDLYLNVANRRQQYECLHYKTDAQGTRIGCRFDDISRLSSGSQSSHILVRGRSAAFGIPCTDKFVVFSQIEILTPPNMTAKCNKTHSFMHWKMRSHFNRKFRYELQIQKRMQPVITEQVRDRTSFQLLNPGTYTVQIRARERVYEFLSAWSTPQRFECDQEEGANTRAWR
Test: ELISA
Parameters: unit not given here
Please provide measured ELISA_avg for the entries that follow.
Numbers only.

Here's what some known entries look like.
D domain of SEQ ID NO: 546 (designed binder) MGSWHVFKTELADIKFYLEALGGSEAELAMFELWIAEFEHELQDYKGKGNPEVEALRKEAAAIRDELQAYRHN    5.4
D domain of SEQ ID NO: 431 (designed binder) MGSWSEFEHRLEAIESRLFALGGSEAELAAFEKEIAAFESELQAYKGKGNPEVEDLRSEAAWIREQLQAYRHN    7.6

Now let's try a different one.
So what's the measured ELISA_avg for this one? D domain of SEQ ID NO: 502 (designed binder) MGSWEEFKEDLAEIKVWLEALGGSEAELAWFEMGIADFEDGLQFYKGKGNPEVEALRKEAAAIRDELQAYRHN
4.3

Ref: patent US20250026849A1
